B1: Twister Ribozyme (parent)
chain: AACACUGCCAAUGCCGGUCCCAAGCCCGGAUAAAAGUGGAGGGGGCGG

Variants of: B1
assay-notes: self-cleavage, relative activity (ratio to wild type); higher = more cleavage; co-transcriptional
Label not fulfilled if self-cleavage falls below 0.1; label fulfilled in every other case.

mutant-label: G29C G38A
assigned-class: fulfilled

mutant-label: C21G G41A
assigned-class: fulfilled

mutant-label: A33U G36A
assigned-class: fulfilled

mutant-label: A30G A40U
assigned-class: not fulfilled

mutant-label: A33G G36A
assigned-class: fulfilled

mutant-label: A11G G39U
assigned-class: fulfilled

mutant-label: A4G C8U
assigned-class: fulfilled

mutant-label: A4G G39U
assigned-class: fulfilled

mutant-label: C21A A33G
assigned-class: not fulfilled

mutant-label: C5A A23C
assigned-class: not fulfilled

mutant-label: G16C U18C
assigned-class: fulfilled

mutant-label: A1U A35U
assigned-class: not fulfilled

mutant-label: C9G G17C
assigned-class: not fulfilled

mutant-label: G29C G44C
assigned-class: fulfilled

mutant-label: C14G A32C
assigned-class: fulfilled

mutant-label: G17U U31A
assigned-class: fulfilled

mutant-label: C3A G45A
assigned-class: fulfilled

mutant-label: G43U G44U
assigned-class: fulfilled

mutant-label: A35U G44U
assigned-class: fulfilled

mutant-label: C20U G42C
assigned-class: fulfilled

mutant-label: A32C A40U
assigned-class: fulfilled

mutant-label: C20A A23U
assigned-class: not fulfilled

mutant-label: C5G G39C
assigned-class: fulfilled

mutant-label: U12A C25U
assigned-class: fulfilled

mutant-label: A34C G43U
assigned-class: fulfilled

mutant-label: C25A A33C
assigned-class: not fulfilled

mutant-label: C26A C46A
assigned-class: fulfilled

mutant-label: G13C C20U
assigned-class: fulfilled

mutant-label: G7U U12G
assigned-class: fulfilled

mutant-label: G17U G28A
assigned-class: fulfilled

mutant-label: A33U C46G
assigned-class: fulfilled

mutant-label: C26G G44C
assigned-class: fulfilled

mutant-label: C14A U18G
assigned-class: not fulfilled

mutant-label: G36A C46A
assigned-class: fulfilled

mutant-label: C5U C21A
assigned-class: fulfilled

mutant-label: C20G A23U
assigned-class: fulfilled

mutant-label: U12C G16U
assigned-class: fulfilled

mutant-label: C26G U37G
assigned-class: fulfilled

mutant-label: C9A A23G
assigned-class: not fulfilled

mutant-label: G38C G44A
assigned-class: fulfilled
